Entries and their measured Ratio hCT/hAmylin binding follow.
SYSTEM_TESTED: T1, human calcitonin receptor (human, UniProt P30988 25-474)
T1 construct: whole, on cells; membranes of stably transfected BHK cells (Assay VII); also called hCTR; hCT
T1 sequence (looked up): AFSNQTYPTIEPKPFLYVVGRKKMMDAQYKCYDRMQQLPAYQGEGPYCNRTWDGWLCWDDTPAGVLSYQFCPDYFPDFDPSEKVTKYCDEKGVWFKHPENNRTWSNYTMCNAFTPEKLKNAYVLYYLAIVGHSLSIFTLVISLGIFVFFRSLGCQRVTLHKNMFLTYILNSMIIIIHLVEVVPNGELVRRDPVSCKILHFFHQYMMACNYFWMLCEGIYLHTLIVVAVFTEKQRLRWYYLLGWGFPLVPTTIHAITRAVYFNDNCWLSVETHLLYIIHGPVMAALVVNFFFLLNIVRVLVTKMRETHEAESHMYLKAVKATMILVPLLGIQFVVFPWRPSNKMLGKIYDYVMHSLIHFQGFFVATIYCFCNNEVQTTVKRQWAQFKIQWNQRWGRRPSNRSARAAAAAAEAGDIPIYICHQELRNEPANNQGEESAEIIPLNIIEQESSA
ASSAY_PROCEDURE: IC50 on human calcitonin receptor divided by IC50 on human amylin receptor (SPA competition)
Numbered stars: 1 amine (or outer) side, 2 acyl side, 3 side chain; on linkers, the order of the positions; unused ones are H or OH. Bridge positions count the residues as written; N and C are the ends. Side chains are listed from the residue outwards. Ends that are not written are not given here. * marks the point of attachment. C20 diacid = O=C(O)CCCCCCCCCCCCCCCCCCC(=O)*; γGlu = O=C(O)[C@H](CCC(=O)[*:2])N[*:1]
Reply with the value as a number alone.

Some entries whose results are on file:
Quick check: Ratio hCT/hAmylin binding of K([γGlu-C20 diacid])CNTATCATQRLANFLRHSSPNFGAIPSSTNVGSKTY-NH2 (disulfide 2-7 (inferred), analogue of human amylin; also called compound 35) [N^ε1-[(4S)-4-carboxy-4-(19-carboxynonadecanoylamino)butanoyl]-[Arg17,Pro21,Pro27,Lys35]-h-amylin] ?
50.3

Now this one: {C20 diacid-γGlu}-KCNTATCATQRLAEFLRHSSPNFGAIPSSTNVGHNTY-NH2 (disulfide 2-7 (inferred), analogue of human amylin; also called compound 17)
12.5

Shift focus to the following entry.
I'd like to know its Ratio hCT/hAmylin binding. The binder in question is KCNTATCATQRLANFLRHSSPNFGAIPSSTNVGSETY (C20 diacid-gGlu on the alpha amino group of the N-terminal residue (Lys 1); disulfide bridge between the two Cys residues; C-terminal amide, analogue of human amylin; also called compound 23) [N^α1-[(4S)-4-carboxy-4-(19-carboxynonadecanoylamino)butanoyl]-[Arg17,Pro21,Pro27,Glu35]-h-amylin]
25
